FYI, the data here is from patent US20240084003A1.

# testSystem: T1, human CD22-ECD-His protein (human, UniProt P20273 20-687)
# T1 construct: Made in house in HEK293E; also called hCD22-ECD-His; recombinant human CD22-ECD His protein; not shown: His tag
# T1 sequence: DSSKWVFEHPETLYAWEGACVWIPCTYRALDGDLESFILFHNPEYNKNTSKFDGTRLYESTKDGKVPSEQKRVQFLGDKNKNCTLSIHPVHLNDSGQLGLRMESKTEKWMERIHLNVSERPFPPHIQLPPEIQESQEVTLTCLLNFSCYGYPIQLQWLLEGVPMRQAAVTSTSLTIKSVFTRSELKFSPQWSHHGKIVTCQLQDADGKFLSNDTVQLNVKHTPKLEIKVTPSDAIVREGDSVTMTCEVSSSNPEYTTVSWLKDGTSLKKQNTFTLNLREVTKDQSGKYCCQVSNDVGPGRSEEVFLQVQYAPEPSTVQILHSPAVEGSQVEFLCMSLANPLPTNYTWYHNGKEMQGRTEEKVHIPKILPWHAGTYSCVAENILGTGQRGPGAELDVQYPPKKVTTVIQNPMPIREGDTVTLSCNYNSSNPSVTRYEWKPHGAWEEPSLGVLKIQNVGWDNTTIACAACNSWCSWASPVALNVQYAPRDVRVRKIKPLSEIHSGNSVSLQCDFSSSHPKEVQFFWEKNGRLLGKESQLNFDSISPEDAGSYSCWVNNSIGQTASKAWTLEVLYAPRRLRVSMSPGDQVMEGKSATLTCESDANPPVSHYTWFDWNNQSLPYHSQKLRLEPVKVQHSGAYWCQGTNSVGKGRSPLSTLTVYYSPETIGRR
# method: ELISA, Ab 0.10 nM
List of OD450 values.
Expressed in OD450, but write only the number.

# example entries with known answers
**Q:** Dear colleague, I am looking for the recorded OD450 of the following binder: F2.127.11 (antibody, human IgG1, lambda, V domains shown, Human-murine chimeric IgG1, lambda) VH: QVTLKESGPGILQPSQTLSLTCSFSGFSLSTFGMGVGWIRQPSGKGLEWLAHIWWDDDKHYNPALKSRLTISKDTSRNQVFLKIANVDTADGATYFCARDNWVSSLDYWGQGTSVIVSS VL: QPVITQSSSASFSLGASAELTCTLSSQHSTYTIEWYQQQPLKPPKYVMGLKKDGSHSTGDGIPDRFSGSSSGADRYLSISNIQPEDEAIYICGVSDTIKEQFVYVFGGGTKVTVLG
**A:** 1.91

**Q:** What would you report for F1.120.15 (antibody, human IgG1, kappa, V domains shown, Human-murine chimeric IgG1, kappa) VH: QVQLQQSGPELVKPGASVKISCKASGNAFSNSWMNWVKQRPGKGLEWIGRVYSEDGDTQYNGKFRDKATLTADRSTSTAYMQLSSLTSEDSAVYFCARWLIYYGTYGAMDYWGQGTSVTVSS VL: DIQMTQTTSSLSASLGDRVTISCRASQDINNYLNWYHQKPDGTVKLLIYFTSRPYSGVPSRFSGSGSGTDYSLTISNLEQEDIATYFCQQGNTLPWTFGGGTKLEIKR ?
**A:** 2.63

**Q:** Check F2.121.9 (antibody, human IgG1, lambda, V domains shown, Human-murine chimeric IgG1, lambda) VH: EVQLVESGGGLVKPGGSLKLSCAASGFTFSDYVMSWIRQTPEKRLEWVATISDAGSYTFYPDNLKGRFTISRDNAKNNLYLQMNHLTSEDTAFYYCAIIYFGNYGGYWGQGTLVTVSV VL: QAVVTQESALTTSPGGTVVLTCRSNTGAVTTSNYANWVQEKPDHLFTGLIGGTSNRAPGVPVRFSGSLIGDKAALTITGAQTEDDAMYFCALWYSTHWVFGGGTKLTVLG too.
**A:** 1.84

**Q:** What would you report for F2.173.9 (antibody, human IgG1, lambda, V domains shown, Human-murine chimeric IgG1, lambda) VH: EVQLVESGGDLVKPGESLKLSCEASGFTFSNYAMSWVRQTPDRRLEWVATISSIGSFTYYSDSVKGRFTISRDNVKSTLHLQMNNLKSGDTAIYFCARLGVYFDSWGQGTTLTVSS VL: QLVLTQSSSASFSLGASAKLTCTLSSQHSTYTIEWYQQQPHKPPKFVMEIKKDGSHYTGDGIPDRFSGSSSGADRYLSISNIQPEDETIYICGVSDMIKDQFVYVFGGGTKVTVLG ?
**A:** 1.93

**Q:** Would you kindly repeat that for F2.180.16 (antibody, human IgG1, lambda, V domains shown, Human-murine chimeric IgG1, lambda) VH: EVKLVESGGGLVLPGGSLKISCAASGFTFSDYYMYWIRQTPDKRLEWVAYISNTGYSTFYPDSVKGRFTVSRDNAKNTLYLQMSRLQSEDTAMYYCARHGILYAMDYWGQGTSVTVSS VL: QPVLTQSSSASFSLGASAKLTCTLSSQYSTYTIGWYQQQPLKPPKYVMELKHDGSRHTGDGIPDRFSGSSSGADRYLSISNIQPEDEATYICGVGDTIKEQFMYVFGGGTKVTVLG ?
**A:** 1.8

Further cases:
**Q:** Need OD450, item F1.60.9 (antibody, human IgG1, kappa, V domains shown, Human-murine chimeric IgG1, kappa) VH: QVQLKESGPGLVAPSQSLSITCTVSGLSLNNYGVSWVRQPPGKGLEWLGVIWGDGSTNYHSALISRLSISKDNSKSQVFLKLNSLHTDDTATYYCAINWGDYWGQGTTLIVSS VL: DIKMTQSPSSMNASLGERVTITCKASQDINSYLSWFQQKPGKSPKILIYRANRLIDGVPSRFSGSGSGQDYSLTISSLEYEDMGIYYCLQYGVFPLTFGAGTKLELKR
**A:** 2.59

**Q:** What would you report for F1.267.9 (antibody, human IgG1, kappa, V domains shown, Human-murine chimeric IgG1, kappa) VH: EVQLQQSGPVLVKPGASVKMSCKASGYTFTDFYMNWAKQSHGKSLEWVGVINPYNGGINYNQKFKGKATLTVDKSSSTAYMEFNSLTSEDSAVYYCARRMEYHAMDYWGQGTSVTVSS VL: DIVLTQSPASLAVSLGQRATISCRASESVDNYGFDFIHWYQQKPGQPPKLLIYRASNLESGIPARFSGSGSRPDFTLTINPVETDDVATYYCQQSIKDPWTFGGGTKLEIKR ?
**A:** 2.39

**Q:** Please answer likewise for F1.224.1 (antibody, human IgG1, kappa, V domains shown, Human-murine chimeric IgG1, kappa) VH: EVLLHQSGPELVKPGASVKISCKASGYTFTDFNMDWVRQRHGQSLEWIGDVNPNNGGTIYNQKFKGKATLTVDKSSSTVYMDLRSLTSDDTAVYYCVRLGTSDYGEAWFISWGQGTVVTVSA VL: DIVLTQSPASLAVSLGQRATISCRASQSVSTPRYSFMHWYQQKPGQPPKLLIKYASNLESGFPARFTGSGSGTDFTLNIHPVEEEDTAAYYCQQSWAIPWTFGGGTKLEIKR
**A:** 2.37

**Q:** Also F1.105.11 (antibody, human IgG1, kappa, V domains shown, Human-murine chimeric IgG1, kappa) VH: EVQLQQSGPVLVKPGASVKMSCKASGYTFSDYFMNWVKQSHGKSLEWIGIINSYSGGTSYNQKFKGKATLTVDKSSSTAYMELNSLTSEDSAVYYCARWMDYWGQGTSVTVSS VL: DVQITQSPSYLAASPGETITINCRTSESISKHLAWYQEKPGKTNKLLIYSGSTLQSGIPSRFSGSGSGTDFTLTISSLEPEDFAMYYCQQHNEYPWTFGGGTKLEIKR ?
**A:** 2.52

**Q:** Next up: F1.192.1 (antibody, human IgG1, kappa, V domains shown, Human-murine chimeric IgG1, kappa) VH: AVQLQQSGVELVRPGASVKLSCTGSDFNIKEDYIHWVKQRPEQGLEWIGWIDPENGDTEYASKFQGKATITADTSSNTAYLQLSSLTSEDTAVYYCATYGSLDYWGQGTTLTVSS VL: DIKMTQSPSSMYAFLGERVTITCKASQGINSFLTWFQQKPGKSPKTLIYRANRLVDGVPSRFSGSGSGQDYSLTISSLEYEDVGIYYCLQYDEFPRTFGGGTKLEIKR
**A:** 2.52
